Test system: Platelet-derived growth factor receptor alpha (Homo sapiens), P16234 [T674I]
Sequence (P16234 whole entry T674I): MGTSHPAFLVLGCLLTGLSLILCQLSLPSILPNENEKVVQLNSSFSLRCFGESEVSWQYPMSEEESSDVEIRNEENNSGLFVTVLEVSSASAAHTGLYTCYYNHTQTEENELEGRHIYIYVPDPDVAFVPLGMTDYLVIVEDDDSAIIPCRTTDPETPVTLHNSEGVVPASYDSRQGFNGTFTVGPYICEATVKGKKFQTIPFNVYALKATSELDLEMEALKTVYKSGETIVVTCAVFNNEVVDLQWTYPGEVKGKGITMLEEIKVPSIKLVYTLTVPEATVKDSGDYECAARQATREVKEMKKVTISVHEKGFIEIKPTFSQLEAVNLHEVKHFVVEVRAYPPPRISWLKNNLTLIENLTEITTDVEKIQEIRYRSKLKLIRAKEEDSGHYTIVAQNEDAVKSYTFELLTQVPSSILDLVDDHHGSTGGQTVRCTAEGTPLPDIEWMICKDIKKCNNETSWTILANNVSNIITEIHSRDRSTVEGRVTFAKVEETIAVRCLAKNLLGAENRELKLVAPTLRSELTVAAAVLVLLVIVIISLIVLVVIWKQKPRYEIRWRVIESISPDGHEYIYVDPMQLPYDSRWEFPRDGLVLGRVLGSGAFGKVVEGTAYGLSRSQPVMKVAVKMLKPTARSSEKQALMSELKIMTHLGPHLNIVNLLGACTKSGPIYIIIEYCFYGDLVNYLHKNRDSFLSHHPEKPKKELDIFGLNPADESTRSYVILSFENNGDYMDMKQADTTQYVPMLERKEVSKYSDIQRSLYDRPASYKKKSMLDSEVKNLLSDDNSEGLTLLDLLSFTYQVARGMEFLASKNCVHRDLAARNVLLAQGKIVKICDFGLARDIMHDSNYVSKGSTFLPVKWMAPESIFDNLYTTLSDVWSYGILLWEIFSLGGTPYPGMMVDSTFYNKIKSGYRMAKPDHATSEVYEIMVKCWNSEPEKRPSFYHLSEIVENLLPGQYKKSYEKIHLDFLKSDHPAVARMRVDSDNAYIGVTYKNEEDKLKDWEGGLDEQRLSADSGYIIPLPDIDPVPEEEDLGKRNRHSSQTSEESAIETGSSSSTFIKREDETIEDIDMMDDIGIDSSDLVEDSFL
Setup conditions: at 0.1 µM

Structure notation: O=C(O[C@H]1CN[C@H](C#Cc2cc3ncnc(Nc4ccc(OCc5cccc(F)c5)c(Cl)c4)c3s2)C1)N1CCOCC1
Target: Platelet-derived growth factor receptor alpha (Homo sapiens), P16234 [T674I]
inhibition: 8.66%

Structure notation: OCCCNc1nccc(-c2c(-c3ccc(F)cc3)nn3cc(C(F)(F)F)ccc23)n1
Target: Platelet-derived growth factor receptor alpha (Homo sapiens), P16234 [T674I]
inhibition: 4.67%

Structure notation: CCCNc1cccc(-n2ncc3c(N/N=C/c4ccncc4)ncnc32)c1
Target: Platelet-derived growth factor receptor alpha (Homo sapiens), P16234 [T674I]
inhibition: 11.7%

Structure notation: Fc1ccc(Nc2nccc(-c3c(-c4ccc(C(F)(F)F)cc4)nn4ncccc34)n2)cc1F
Target: Platelet-derived growth factor receptor alpha (Homo sapiens), P16234 [T674I]
inhibition: 4.35%

Structure notation: CC1(C)CC(n2cnc(-c3ccc(F)cc3)c2-c2ccnc(N)n2)CC(C)(C)N1
Target: Platelet-derived growth factor receptor alpha (Homo sapiens), P16234 [T674I]
inhibition: 2.4%

Structure notation: CCS(=O)(=O)c1ccc(OC)c(Nc2ncc(-c3cccc(C(C)=O)c3)o2)c1
Target: Platelet-derived growth factor receptor alpha (Homo sapiens), P16234 [T674I]
inhibition: 7.08%

Structure notation: CS(=O)(=O)CCNCc1ccc(-c2ccc3ncnc(Nc4ccc(OCc5ccccc5)cc4)c3c2)o1
Target: Platelet-derived growth factor receptor alpha (Homo sapiens), P16234 [T674I]
inhibition: 3.14%

Structure notation: CCOc1ccc2c(-c3ccnc(Nc4cc(OC)cc(C(F)(F)F)c4)n3)cnn2n1
Target: Platelet-derived growth factor receptor alpha (Homo sapiens), P16234 [T674I]
inhibition: 2.28%

Structure notation: Cc1nnc(-c2cccc(-c3ccc(C(=O)NCC4CC4)cc3)c2)o1
Target: Platelet-derived growth factor receptor alpha (Homo sapiens), P16234 [T674I]
inhibition: 6.98%
